ASSAY_CONDITIONS: in ethanol, 298.15 K
EXPERIMENTAL_ENDPOINT: solubility (mole fraction)

Q: So what's the measured solubility (mole fraction) for this one? CCCCc1oc2ccc(NS(C)(=O)=O)cc2c1C(=O)c1ccc(OCCCN(CCCC)CCCC)cc1.Cl
Result: 0.00418

----------
ASSAY_CONDITIONS: in water, 308.15 K
EXPERIMENTAL_ENDPOINT: solubility (mole fraction)
Returns: the value as a bare number; no unit string appended.

Q: Consider the compound shown here: CCCCc1oc2ccc(NS(C)(=O)=O)cc2c1C(=O)c1ccc(OCCCN(CCCC)CCCC)cc1.Cl What is its recorded solubility (mole fraction)?
Result: 3.09e-05

----------
ASSAY_CONDITIONS: in methanol, 318.15 K
EXPERIMENTAL_ENDPOINT: solubility (mole fraction)
Number, no unit, nothing else.

Q: Data request, read-out solubility (mole fraction), for CCCCc1oc2ccc(NS(C)(=O)=O)cc2c1C(=O)c1ccc(OCCCN(CCCC)CCCC)cc1.Cl
Result: 0.0919

----------
ASSAY_CONDITIONS: in methanol, 313.15 K
EXPERIMENTAL_ENDPOINT: solubility (mole fraction)
Reply with just the number.

Q: Look up solubility (mole fraction): CCCCc1oc2ccc(NS(C)(=O)=O)cc2c1C(=O)c1ccc(OCCCN(CCCC)CCCC)cc1.Cl
Result: 0.077

----------
ASSAY_CONDITIONS: in ethanol, 303.15 K
EXPERIMENTAL_ENDPOINT: solubility (mole fraction)
API note: the answer field is a bare number with no unit suffix.

Q: What measured solubility (mole fraction) goes with CCCCc1oc2ccc(NS(C)(=O)=O)cc2c1C(=O)c1ccc(OCCCN(CCCC)CCCC)cc1.Cl ?
Result: 0.00461

----------
ASSAY_CONDITIONS: in n-propanol, 303.15 K
EXPERIMENTAL_ENDPOINT: solubility (mole fraction)
Form: value (number only, do not type unit).

Q: Look up solubility (mole fraction): CCCCc1oc2ccc(NS(C)(=O)=O)cc2c1C(=O)c1ccc(OCCCN(CCCC)CCCC)cc1.Cl
Result: 0.00353

----------
ASSAY_CONDITIONS: in ethanol, 308.15 K
EXPERIMENTAL_ENDPOINT: solubility (mole fraction)
Hey, just send me the number, nothing else.

Q: Need solubility (mole fraction) of CCCCc1oc2ccc(NS(C)(=O)=O)cc2c1C(=O)c1ccc(OCCCN(CCCC)CCCC)cc1.Cl , thanks.
Result: 0.00535

----------
ASSAY_CONDITIONS: in isopropanol, 323.15 K
EXPERIMENTAL_ENDPOINT: solubility (mole fraction)
Respond using a number only.

Q: Using the record for CCCCc1oc2ccc(NS(C)(=O)=O)cc2c1C(=O)c1ccc(OCCCN(CCCC)CCCC)cc1.Cl , report its solubility (mole fraction).
Result: 0.00293

----------
ASSAY_CONDITIONS: in n-propanol, 318.15 K
EXPERIMENTAL_ENDPOINT: solubility (mole fraction)
Format: numeric value only, no unit, no commentary.

Q: Item CCCCc1oc2ccc(NS(C)(=O)=O)cc2c1C(=O)c1ccc(OCCCN(CCCC)CCCC)cc1.Cl has what recorded solubility (mole fraction)?
Result: 0.00892

----------
ASSAY_CONDITIONS: in n-propanol, 323.15 K
EXPERIMENTAL_ENDPOINT: solubility (mole fraction)
// return a plain number; no unit text

Q: Which value of solubility (mole fraction) has been reported for CCCCc1oc2ccc(NS(C)(=O)=O)cc2c1C(=O)c1ccc(OCCCN(CCCC)CCCC)cc1.Cl in the records?
Result: 0.0159
